target or system: COX-2 (human) (Homo sapiens, UniProt P35354)
Construct: purchased Cayman Chemical Item No. 701080
Sequence (P35354 18-604): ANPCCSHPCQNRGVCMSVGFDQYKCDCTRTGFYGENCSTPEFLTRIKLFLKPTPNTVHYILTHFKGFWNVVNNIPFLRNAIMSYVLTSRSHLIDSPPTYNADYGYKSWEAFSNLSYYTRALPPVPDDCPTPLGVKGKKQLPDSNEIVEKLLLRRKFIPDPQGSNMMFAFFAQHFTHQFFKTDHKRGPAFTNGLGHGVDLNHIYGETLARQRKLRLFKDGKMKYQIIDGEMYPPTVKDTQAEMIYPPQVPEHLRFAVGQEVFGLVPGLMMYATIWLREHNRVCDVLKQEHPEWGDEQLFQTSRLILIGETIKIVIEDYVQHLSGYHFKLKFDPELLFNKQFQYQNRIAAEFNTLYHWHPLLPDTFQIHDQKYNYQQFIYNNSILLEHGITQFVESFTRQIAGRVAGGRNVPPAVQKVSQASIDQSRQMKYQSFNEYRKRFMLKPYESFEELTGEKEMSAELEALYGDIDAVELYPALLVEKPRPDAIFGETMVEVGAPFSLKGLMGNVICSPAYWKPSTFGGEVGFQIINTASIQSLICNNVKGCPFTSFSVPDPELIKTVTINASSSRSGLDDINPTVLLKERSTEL
assay notes: COX-2 (human) Inhibitor Screening Assay Kit (ELISA)
Format: biochemical
Exercise: state measured Percentage COX-2 Inhibitory Activity for each of the molecules provided.
Only the number, expressed in %, is required.

// query Quick one: give measured Percentage COX-2 Inhibitory Activity for `COc1ccc2cc([C@H](C)C(=O)[O][Pt+2]3([OH])[N]4C=CC=c5c(C)c(C)c6c(c54)[N]3C=CC=6)ccc2c1.N[C@H]1CCCC[C@@H]1N`
// result 37

// query Quick one: give measured Percentage COX-2 Inhibitory Activity for COc1ccc2cc([C@H](C)C(=O)[O][Pt+2]3([OH])[N]4C=CC=c5cc(C)c6c(c54)[N]3C=CC=6)ccc2c1.N[C@H]1CCCC[C@@H]1N (some centres unmarked) [Complex 2, [Pt^IV(5-Mephen)(SS-DACH)(NPX)(OH)]^2+]
// result 44

// query Quick one: give measured Percentage COX-2 Inhibitory Activity for `COc1ccc2c(c1)c(CC(=O)OCC(=O)[O][Pt-2]13([OH])([NH2+][C@H]4CCCC[C@@H]4[NH2+]1)[n+]1cccc4c(C)c(C)c5ccc[n+]3c5c41)c(C)n2C(=O)c1ccc(Cl)cc1`
// result 32

// query Quick one: give measured Percentage COX-2 Inhibitory Activity for COc1ccc2cc([C@H](C)C(=O)[O][Pt+2]3([OH])[N]4C=CC=c5ccc6c(c54)[N]3C=CC=6)ccc2c1.N[C@H]1CCCC[C@@H]1N [Complex 1, [Pt^IV(phen)(SS-DACH)(NPX)(OH)]^2+]
// result 55

// query Quick one: give measured Percentage COX-2 Inhibitory Activity for N.N.[Cl][Pt][Cl] [Cisplatin, cis-diamminedichloroplatinum(II)]
// result 9
